The entries below are paired with their reported IC50.
Target: CXCR4 (Jurkat cells expressing CXCR4) (Homo sapiens, UniProt P61073)
Construct: Jurkat cells expressing CXCR4; endogenous in cells
Sequence (P61073 whole entry): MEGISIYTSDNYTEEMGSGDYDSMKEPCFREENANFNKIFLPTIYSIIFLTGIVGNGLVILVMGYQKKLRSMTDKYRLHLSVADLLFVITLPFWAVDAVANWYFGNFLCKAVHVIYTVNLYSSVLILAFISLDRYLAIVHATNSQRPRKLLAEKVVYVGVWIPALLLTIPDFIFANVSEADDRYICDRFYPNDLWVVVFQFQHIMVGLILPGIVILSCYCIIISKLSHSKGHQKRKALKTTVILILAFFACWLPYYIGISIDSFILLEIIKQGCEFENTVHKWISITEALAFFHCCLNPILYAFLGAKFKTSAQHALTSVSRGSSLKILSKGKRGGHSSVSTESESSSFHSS
Assay: Chemokine (CXCL12-AF647) binding inhibition assay
Conditions: CXCL12-AF647 25 ng/mL, read-out: IC50 CXCL-12 binding Jurkat

>>> print(df.to_string())
                                   compound          result
0  Cc1cccnc1C1CCCN1Cc1nc2cccc(N3CCN4CCCC4C3)c2[nH]1 (centres unmarked)  0.01 to 100 nM
1  c1ccc(C2CCCN2Cc2nc3ccccn3c2N2CCN(C3CC3)CC2)nc1 (centres unmarked)  0.01 to 100 nM
2  CN1CCC(n2c(C3CCCN3Cc3ccccn3)nc3ccccc32)CC1 (centres unmarked)  0.01 to 100 nM

Prompt: Can you look up the measured IC50 of Cc1cccnc1C1CCCN1Cc1nc2cccc(N3CCN(C)CC3)n2c1Br (centres unmarked) for me?
Completion: 100 to 1000 nM

Prompt: Which IC50 reading was recorded for the compound Cc1cccnc1C1CCCN1Cc1nccn1CC1CCN(CC(F)(F)F)CC1 (centres unmarked) ?
Completion: 100 to 1000 nM
